Molecular target: pooled human IgG
OBSERVABLE: Enzyme Activity Endpoint Assay (purified): scIgG (ng/µL)
# output: bare number, implied unit ng/µL

{"PROTEIN": "PRT-234 (protein) MEVVEVWPYGQNPNGKTEILSQTEDSESLQRLRDIEDFQAEKKMQNVVYTKWLDGVDVKDHDFRKIVDGNIAYYATPLLNGRGFYDINKDFNRDSDKCAAAVAANMFHYWLDINRDNVDRFLRQNPEKHGIIELPDGQLKLSDFLNTYESDDGYRDKSKLFDFISNNFNGPVWTDKLLDNYINGYAYNYKYGRTIEDPTKNTSKINFFKEVFNEKILTNNHSIRNQNEFSVLLSEALYTGKAIGLSYGPAGLRHSLGHIISVWGADLDADGNVVAIYVTDSDDKKLTIGDERVGLKRYKISTDDENRLRLTAYEETHNTGGQIRGLWTLDTGKYAWADYFDKTEQTGTDQAEQLEHHHHHH", "OUTPUT_UNIT": "ng/µL", "VAL": 432}

Which Enzyme Activity Endpoint Assay (purified): scIgG value is on record for PRT-60 (protein) MANQEIRYSEVTPYHVTSVWTKGVTPPANFTQGEDVFHAPYVANQGWYDITKTFNGKDDLLCGAATAGNMLHWWFDQNKDQIKRYLEEHPEKAKINFNGEQMFDVKEAIDTKNHQLDSKLFEYFKEKAFPYLSTKHLGVFPDHVIDMFINGYRLSLTNHGPTPVKEGSKDPRGGIFDAVFGRGDQSKLLTSRHDFKEKNLKEISDLIKKELTEGKALGLSHTYANVRINHVINLWGADFDSNGNLKAIYVTDSDSNASIGMKKYFVGVNSAGKVAISAKEIKEDNIGAQVLGLFTLSTGQDSWNQTN ? 16

Values from patent US20250027068
